biological target: SMARCA2 (Homo sapiens); experiment: SMARCA2 Western blot degradation in MV4-11 cells; type: cell-based; set-up: SMARCA2/SMARCA4 protein degradation selectivity in MV4-11 cells; endogenous in cells; host or cells: MV4-11; settings: SMARCA2/4 selectivity, MV4-11 cells

COMPOUND: Cc1ncsc1-c1ccc(CNC(=O)[C@@H]2C[C@@H](O)CN2C(=O)[C@@H](NC(=O)C2(F)CC2)C(C)(C)C)c(O[C@H]2CC[C@@H](N3CCC(c4cnc(N5CCc6[nH]c7nnc(-c8ccccc8O)cc7c6[C@@H]5C)nc4)CC3)CC2)c1 (single isomer, unassigned) [I-34]
Selectivity in MV411: B (B (>100-500 fold))
--
COMPOUND: C#Cc1ccc(CNC(=O)[C@@H]2C[C@@H](O)CN2C(=O)[C@@H](NC(=O)[C@H]2CC3(C2)C[C@H](N2CCC(N4CCC(N5CCN6c7cc(-c8ccccc8O)nnc7NC[C@H]6C5)CC4)CC2)C3)C(C)(C)C)c(Cl)c1 (single isomer, unassigned) [I-229]
Selectivity in MV411: B (B (>100-500 fold))

---

target: SMARCA2 (Homo sapiens, UniProt P51531); assay: SMARCA2 Western blot degradation in MV4-11 cells; type: cell-based; set-up: SMARCA2/SMARCA4 protein degradation selectivity in MV4-11 cells; endogenous in cells; host or cells: MV4-11; settings: MV4-11, MV4-11 cells, 24 h; read-out: SMARCA2 MSD MV411 degradation 24 h: average Dmax %
Sequence (P51531 whole entry): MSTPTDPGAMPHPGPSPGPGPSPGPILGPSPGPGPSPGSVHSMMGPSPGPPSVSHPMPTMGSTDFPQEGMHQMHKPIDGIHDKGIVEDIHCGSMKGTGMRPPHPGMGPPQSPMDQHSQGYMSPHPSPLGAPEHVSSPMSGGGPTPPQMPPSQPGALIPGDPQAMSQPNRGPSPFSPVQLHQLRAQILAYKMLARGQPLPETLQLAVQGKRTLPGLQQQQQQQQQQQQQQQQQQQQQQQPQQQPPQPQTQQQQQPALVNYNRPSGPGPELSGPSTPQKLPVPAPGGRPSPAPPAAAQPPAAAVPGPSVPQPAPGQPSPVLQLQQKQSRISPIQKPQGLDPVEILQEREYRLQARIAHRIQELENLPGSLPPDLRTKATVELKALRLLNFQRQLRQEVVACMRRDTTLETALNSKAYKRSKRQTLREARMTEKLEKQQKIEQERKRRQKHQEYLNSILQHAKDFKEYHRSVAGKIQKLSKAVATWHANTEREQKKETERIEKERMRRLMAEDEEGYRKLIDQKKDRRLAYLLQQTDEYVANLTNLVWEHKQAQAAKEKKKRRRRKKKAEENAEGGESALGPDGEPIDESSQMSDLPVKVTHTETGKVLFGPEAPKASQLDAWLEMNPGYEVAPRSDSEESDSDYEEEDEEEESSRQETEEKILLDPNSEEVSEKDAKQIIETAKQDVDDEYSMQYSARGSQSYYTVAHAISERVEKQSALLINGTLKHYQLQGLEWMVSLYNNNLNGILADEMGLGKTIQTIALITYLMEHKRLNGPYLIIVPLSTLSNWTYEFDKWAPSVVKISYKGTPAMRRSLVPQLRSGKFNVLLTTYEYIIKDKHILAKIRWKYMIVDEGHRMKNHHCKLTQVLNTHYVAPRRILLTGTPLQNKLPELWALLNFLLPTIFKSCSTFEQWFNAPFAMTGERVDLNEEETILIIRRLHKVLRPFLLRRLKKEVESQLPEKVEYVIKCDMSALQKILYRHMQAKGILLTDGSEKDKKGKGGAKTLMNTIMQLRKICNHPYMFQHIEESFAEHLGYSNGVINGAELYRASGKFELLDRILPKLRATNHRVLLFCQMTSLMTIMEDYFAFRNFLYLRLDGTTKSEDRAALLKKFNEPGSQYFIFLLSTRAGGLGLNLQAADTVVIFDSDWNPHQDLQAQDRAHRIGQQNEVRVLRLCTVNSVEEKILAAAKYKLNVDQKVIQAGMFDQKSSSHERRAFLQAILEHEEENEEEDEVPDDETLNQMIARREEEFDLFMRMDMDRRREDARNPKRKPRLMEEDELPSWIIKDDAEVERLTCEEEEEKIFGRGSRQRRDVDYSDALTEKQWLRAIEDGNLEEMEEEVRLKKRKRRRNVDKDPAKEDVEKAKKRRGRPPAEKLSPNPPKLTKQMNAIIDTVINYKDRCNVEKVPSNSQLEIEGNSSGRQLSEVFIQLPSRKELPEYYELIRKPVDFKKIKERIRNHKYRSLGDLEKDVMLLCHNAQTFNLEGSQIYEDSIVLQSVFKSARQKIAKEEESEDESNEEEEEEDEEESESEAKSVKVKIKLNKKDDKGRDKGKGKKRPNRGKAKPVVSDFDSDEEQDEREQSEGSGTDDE
PROPERTY MEASURED: Dmax

Recorded Dmax, per entry:
MOLECULE: C#Cc1ccc(CNC(=O)[C@@H]2C[C@@H](O)CN2C(=O)[C@@H](NC(=O)N2CC3(CC(N4CCC([C@H]5CC[C@@H](N6CCc7[nH]c8nnc(-c9ccccc9O)cc8c7[C@H]6C)CC5)CC4)C3)C2)C(C)(C)C)cc1 [I-185]
ENDPOINT RESULT: 70 to 90%
--
MOLECULE: C#Cc1ccc(CNC(=O)[C@@H]2C[C@@H](O)CN2C(=O)[C@@H](NC(=O)N2CCN(CC3CCN([C@H]4CC[C@H](N5CCN6c7cc(-c8ccccc8O)nnc7NC[C@H]6C5)CC4)CC3)CC2)C(C)(C)C)cc1 [I-217]
ENDPOINT RESULT: 50 to 70%
--
MOLECULE: C#Cc1ccc(CNC(=O)[C@@H]2C[C@@H](O)CN2C(=O)[C@@H](NC(=O)N2CCN(C[C@H]3CC[C@@H](N4CCc5[nH]c6nnc(-c7ccccc7O)cc6c5[C@H]4C)CC3)CC2)C(C)(C)C)cc1 [I-199]
ENDPOINT RESULT: 50 to 70%

Give the measured Dmax for Cc1ncsc1-c1ccc(CNC(=O)[C@@H]2C[C@@H](O)CN2C(=O)[C@@H](NC(=O)[C@H]2CC3(CC[C@H](N4CCN(c5ccnc(N6CCc7[nH]c8nnc(-c9ccccc9O)cc8c7[C@H]6C)n5)CC4)CC3)C2)C(C)(C)C)cc1 (stereo partly drawn) [I-80]
> 90%

Give the measured Dmax for Cc1ncsc1-c1ccc(CNC(=O)[C@@H]2C[C@@H](O)CN2C(=O)C(c2cc(OCCCCN3CCC(c4cnc(N5CCc6[nH]c7nnc(-c8ccccc8O)cc7c6[C@H]5C)nc4)CC3)no2)C(C)C)cc1 (stereo partly drawn) [I-35]
> 90%

Give the measured Dmax for C#Cc1ccc(CNC(=O)[C@@H]2C[C@@H](O)CN2C(=O)[C@@H](NC(=O)CCCN2CCC(N3CC4(CC(N5CCN6c7cc(-c8ccccc8O)nnc7NC[C@H]6C5)C4)C3)CC2)C(C)(C)C)cc1 (single isomer, unassigned) [I-244]
> 90%

Give the measured Dmax for COc1cc(C(C(=O)N2C[C@H](O)C[C@H]2C(=O)NCC#Cc2ccccc2OCCCCN2CCC(c3cnc(N4CCN5c6cc(-c7ccccc7O)nnc6NC[C@H]5C4)nc3)CC2)C(C)C)on1 (stereo partly drawn) [I-74]
> 90%

Give the measured Dmax for Cc1ncsc1-c1ccc(CNC(=O)[C@@H]2C[C@@H](O)CN2C(=O)[C@@H](NC(=O)[C@H]2CCC3(CC2)C[C@H](N2CCC4(CC2)CN(C(=O)N2CCN5c6cc(-c7ccccc7O)nnc6NC[C@H]5C2)CCO4)C3)C(C)(C)C)cc1 (single isomer, unassigned) [I-133]
70 to 90%

Give the measured Dmax for C#Cc1cc(F)c(CNC(=O)[C@@H]2C[C@@H](O)CN2C(=O)[C@@H](NC(=O)N2CC3(CC(N4CCC(c5cnc(N6CCc7[nH]c8nnc(-c9ccccc9O)cc8c7[C@H]6C)nc5)CC4)C3)C2)C(C)(C)C)cc1F [I-403]
70 to 90%

---

molecular target: SMARCA4 (Homo sapiens); construct: SMARCA2/SMARCA4 protein degradation selectivity in MV4-11 cells; endogenous in cells; host or cells: MV4-11; experiment: SMARCA4 Western blot degradation in MV4-11 cells; assay type: cell-based; settings: MV4-11, MV4-11 cells, 24 h; read-out: SMARCA4 MSD MV411 degradation 24 h: average Dmax %
Sequence (P51532 whole entry): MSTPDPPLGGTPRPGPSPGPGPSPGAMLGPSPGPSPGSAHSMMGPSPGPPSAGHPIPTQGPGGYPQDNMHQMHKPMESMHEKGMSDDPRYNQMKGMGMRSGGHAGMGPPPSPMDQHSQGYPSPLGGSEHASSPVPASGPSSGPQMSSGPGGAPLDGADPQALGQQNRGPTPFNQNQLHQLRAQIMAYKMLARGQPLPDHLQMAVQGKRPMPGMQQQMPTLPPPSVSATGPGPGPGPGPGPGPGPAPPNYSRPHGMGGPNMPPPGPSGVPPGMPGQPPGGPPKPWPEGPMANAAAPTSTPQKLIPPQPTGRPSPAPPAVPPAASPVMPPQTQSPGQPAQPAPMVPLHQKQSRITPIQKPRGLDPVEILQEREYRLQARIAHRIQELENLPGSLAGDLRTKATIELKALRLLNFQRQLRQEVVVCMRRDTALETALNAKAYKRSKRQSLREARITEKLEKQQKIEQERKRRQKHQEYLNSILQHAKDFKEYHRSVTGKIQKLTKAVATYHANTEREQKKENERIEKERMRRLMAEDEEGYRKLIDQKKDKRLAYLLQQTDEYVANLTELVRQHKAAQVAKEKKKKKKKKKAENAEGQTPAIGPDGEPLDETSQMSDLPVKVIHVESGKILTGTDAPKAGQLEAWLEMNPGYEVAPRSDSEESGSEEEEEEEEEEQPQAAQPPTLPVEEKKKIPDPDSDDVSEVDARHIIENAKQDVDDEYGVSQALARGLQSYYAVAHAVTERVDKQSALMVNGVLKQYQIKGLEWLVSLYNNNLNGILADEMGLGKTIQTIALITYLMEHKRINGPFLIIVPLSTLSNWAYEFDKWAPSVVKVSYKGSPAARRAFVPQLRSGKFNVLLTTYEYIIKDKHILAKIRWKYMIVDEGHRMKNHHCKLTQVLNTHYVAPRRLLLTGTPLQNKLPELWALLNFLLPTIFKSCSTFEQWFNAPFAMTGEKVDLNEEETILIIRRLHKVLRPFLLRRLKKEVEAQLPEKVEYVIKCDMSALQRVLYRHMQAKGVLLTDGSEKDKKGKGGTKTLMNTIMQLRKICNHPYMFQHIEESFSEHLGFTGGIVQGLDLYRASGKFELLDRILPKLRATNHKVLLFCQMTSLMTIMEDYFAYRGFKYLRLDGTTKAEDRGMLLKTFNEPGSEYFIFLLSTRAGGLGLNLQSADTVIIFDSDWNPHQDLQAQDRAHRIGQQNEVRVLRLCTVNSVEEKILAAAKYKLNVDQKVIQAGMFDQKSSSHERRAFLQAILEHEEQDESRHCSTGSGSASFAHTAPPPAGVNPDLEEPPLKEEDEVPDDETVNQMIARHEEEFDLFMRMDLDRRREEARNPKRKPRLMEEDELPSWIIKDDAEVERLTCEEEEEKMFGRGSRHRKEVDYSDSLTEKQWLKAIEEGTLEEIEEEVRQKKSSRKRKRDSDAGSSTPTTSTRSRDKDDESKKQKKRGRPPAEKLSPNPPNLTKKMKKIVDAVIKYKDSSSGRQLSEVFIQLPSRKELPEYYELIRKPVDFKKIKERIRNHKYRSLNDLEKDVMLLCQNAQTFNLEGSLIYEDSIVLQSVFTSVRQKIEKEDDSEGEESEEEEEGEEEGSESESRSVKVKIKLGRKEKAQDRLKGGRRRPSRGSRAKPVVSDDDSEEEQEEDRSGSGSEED
Listed next: entries and their corresponding Dmax.

SUBSTANCE SMILES: C#Cc1ccc(CNC(=O)[C@@H]2C[C@@H](O)CN2C(=O)[C@@H](N(C)C(=O)N2CC3(CC(N4CCC(c5cnc(N6CCc7[nH]c8nnc(-c9ccccc9O)cc8c7[C@H]6C)nc5)CC4)C3)C2)C(C)(C)C)cc1
Dmax: 50 to 70%

Now look at this one.
Give the measured Dmax for `Cc1ncsc1-c1ccc(CNC(=O)[C@@H]2C[C@@H](O)CN2C(=O)[C@@H](NC(=O)N2CC3(CC(N4CCC(c5cnc(N6CCN7c8cc(-c9ccccc9O)nnc8NC[C@H]7C6)nc5)CC4)C3)C2)C(C)(C)C)cc1`
50 to 70%

---

biological target: SMARCA2 (Homo sapiens, UniProt P51531); experiment: MSD SMARCA2 degradation in A549 cell line; assay type: cell-based; conditions: A549 cells, 24 h, read-out: SMARCA2 MSD A549 degradation 24 h: Average external-Abs DC50
Listed next: entries and their corresponding DC50.

Recorded DC50, per entry:
MOLECULE: C#Cc1ccc(CNC(=O)[C@@H]2C[C@@H](O)CN2C(=O)[C@H](NC(=O)N2CC3(CC(N4CCC(c5cnc(N6CCc7[nH]c8nnc(-c9ccccc9O)cc8c7[C@H]6C)nc5)CC4)C3)C2)C(C)(C)CCN2CCOCC2)cc1 (single isomer, unassigned)
DC50: > 0.1 µM

MOLECULE: C#Cc1ccc(CNC(=O)[C@@H]2C[C@@H](O)CN2C(=O)[C@@H](NC(=O)N2CC3(CC(N4CCC(c5cnc(N6CCN7c8cc(-c9ccccc9O)nnc8NC[C@H]7C6)nc5)CC4)C3)C2)C(C)(C)C)cc1
DC50: < 0.01 µM

MOLECULE: C#Cc1ccc(CNC(=O)[C@@H]2C[C@@H](O)CN2C(=O)[C@@H](NC(=O)N2CC3(CC(CCN4CCC(c5cnc(N6CCc7[nH]c8nnc(-c9ccccc9O)cc8c7[C@H]6C)nc5)CC4)C3)C2)C(C)(C)C)cc1
DC50: 0.01 to 0.05 µM

MOLECULE: C#Cc1ccc(CNC(=O)[C@@H]2C[C@@H](O)CN2C(=O)[C@@H](NC(=O)N2CC3(CC(N4CCC([C@H]5CC[C@@H](N6CCc7[nH]c8nnc(-c9ccccc9O)cc8c7[C@H]6C)CC5)CC4)C3)C2)C(C)(C)C)cc1
DC50: > 0.1 µM

MOLECULE: Cc1ncsc1-c1ccc(CNC(=O)[C@@H]2C[C@@H](O)CN2C(=O)C(c2cc(OC[C@H]3CC[C@@H](N4CCC(c5cnc(N6CCc7[nH]c8nnc(-c9ccccc9O)cc8c7[C@@H]6C)nc5)CC4)CC3)no2)C(C)C)cc1 (single isomer, unassigned)
DC50: 0.05 to 0.1 µM

MOLECULE: CC(C)(C)[C@H](NC(=O)[C@H]1CCC2(CC1)C[C@H](N1CCC(c3cnc(N4CCN5c6cc(-c7ccccc7O)nnc6NC[C@H]5C4)nc3)CC1)C2)C(=O)N1C[C@H](O)C[C@H]1C(=O)NCC#Cc1ccc(Cl)cc1 (single isomer, unassigned) [I-114]
DC50: > 0.1 µM

MOLECULE: C#Cc1ccc(CNC(=O)[C@@H]2C[C@@H](O)CN2C(=O)[C@@H](NC(=O)[C@H]2CCC3(CC2)C[C@H](N2CCC(N4CC5(CC(N6CCN7c8cc(-c9ccccc9O)nnc8NC[C@H]7C6)C5)C4)CC2)C3)C(C)(C)C)cc1 (single isomer, unassigned) [I-237]
DC50: 0.05 to 0.1 µM

MOLECULE: C#Cc1ccc(CNC(=O)[C@@H]2C[C@@H](O)CN2C(=O)C(c2cc(OCCN3CCC(N4CCC(N5CCC(CN6CCN7c8cc(-c9ccccc9O)nnc8NC[C@H]7C6)CC5)CC4)CC3)no2)C(C)C)c(F)c1 (stereo partly shown)
DC50: 0.05 to 0.1 µM

Give the measured DC50 for `C#Cc1ccc(CNC(=O)[C@@H]2C[C@@H](O)CN2C(=O)[C@@H](NC(=O)c2ccc(N3CCC(N4CCC(N5CCN6c7cc(-c8ccccc8O)nnc7NC[C@H]6C5)CC4)CC3)cc2)C(C)(C)C)cc1`
< 0.01 µM

Give the measured DC50 for C#Cc1ccc(CNC(=O)[C@@H]2C[C@@H](O)CN2C(=O)[C@@H](NC(=O)[C@H]2CCC3(CC2)C[C@H](N2CCN(c4cnc(N5CCN6c7cc(-c8ccccc8O)nnc7NC[C@H]6C5)nc4)CC2)C3)C(C)(C)CCO)cc1 (single isomer, unassigned) [I-287]
< 0.01 µM

Give the measured DC50 for Cc1ncsc1-c1ccc(CNC(=O)[C@@H]2C[C@@H](O)CN2C(=O)[C@@H](NC(=O)[C@H]2CC3(C2)C[C@H](N2CCN(c4cnc(N5CCc6[nH]c7nnc(-c8ccccc8O)cc7c6[C@H]5C)nc4)CC2)C3)C(C)(C)C)cc1 (single isomer, unassigned) [I-77]
0.01 to 0.05 µM

Give the measured DC50 for `C#Cc1ccc(CNC(=O)[C@@H]2C[C@@H](O)CN2C(=O)[C@@H](NC(=O)[C@H]2CC[C@@H](CN3CCC(c4cnc(N5CCN6c7cc(-c8ccccc8O)nnc7NC[C@H]6C5)nc4)CC3)CC2)C(C)(C)C)cc1`
0.01 to 0.05 µM
